Assay: Inhibition of bacterial glucosamine-6-phosphate synthase at 100 uM by colorimetric morgan-elson assay
property_label: inhibition (%)

Below are worked cases with known answers.
COc1ccccc1C1Oc2ccccc2C2=C1C(c1ccccc1OC)n1nc(C)nc1N2 (configuration not stated): 70
O=C(O)CC(Sc1ccc(C(=O)O)cc1)C(=O)O (configuration not stated): 0
O=S(=O)(NC(NS(=O)(=O)c1ccccc1)c1ccc(Br)cc1)c1ccccc1: 0
COc1ccc(-c2sc(C(=O)O)cc2CC(=O)O)cc1: 0
O=C(O)Cc1csc(NC(=O)CSc2ccccn2)n1: 0

[A] COC(=O)c1sc(N2C(=O)C(O)=C(C(=O)c3ccccc3)C2c2ccc(C)cc2)nc1C (configuration not stated)
[B] O=C(C1=C(O)C(=O)N(Cc2cccnc2)C1c1cccc(Oc2ccccc2)c1)c1ccco1 (configuration not stated)
[C] CCOC(=O)c1sc(N2C(=O)C(O)=C(C(=O)c3ccc(F)cc3)C2c2ccc(OC)cc2)nc1C (configuration not stated)
-- ask Rank by inhibition (largest to smallest). Sort the labels as requested; that list is your answer.
-- reply C, B, A

[1] COC(=O)c1sc(N2C(=O)C(O)=C(C(=O)c3ccc(Cl)cc3)C2c2ccccc2F)nc1C (configuration not stated)
[2] CCOC(=O)c1sc(N2C(=O)C(O)=C(C(=O)c3ccc(F)cc3)C2c2cccc(Br)c2)nc1C (configuration not stated)
-- ask Which entry has a larger number for inhibition, 1 or 2 ? Answer = label.
-- reply 2
(2: 70%, 1: 0%)

[I] O=C(O)C[C@@H](NS(=O)(=O)c1ccccc1)C(=O)O
[II] N[C@@H](CO)[C@@H](O)[C@H](O)[C@H](O)COP(=O)(O)O
-- ask Could you please tell me which of these two has the higher inhibition: I or II ? Give the label of your selection.
-- reply II
(II: 85%, I: 0%)
